# Test system: IMCSzyme™ (recombinant glucuronidase)
# PROTOCOL NOTES: IMCSzyme hydrolysis of opiate glucuronides
# Type: biochemical
# ASSAY CONTEXT: 65° C., 15 min
PARAMETER: Mean % Hydrolysis

compound="CN1CC[C@]23c4c5ccc(O[C@@H]6O[C@H](C(=O)O)[C@@H](O)[C@H](O)[C@H]6O)c4O[C@H]2C(=O)CC[C@H]3[C@H]1C5 [Hydromorphone Glucuronide]" system_under_test="IMCSzyme™ (recombinant glucuronidase)" parameter="Mean % Hydrolysis" reported_measurement=77.1%
compound="COc1ccc2c3c1O[C@H]1[C@@H](O[C@@H]4O[C@H](C(=O)O)[C@@H](O)[C@H](O)[C@H]4O)C=C[C@H]4[C@@H](C2)N(C)CC[C@@]341 [Codeine Glucuronide]" system_under_test="IMCSzyme™ (recombinant glucuronidase)" parameter="Mean % Hydrolysis" reported_measurement=42.7%
compound="CN1CC[C@]23c4c5ccc(O[C@@H]6O[C@H](C(=O)O)[C@@H](O)[C@H](O)[C@H]6O)c4O[C@H]2C(=O)CC[C@@]3(O)[C@H]1C5 [Oxymorphone Glucuronide]" system_under_test="IMCSzyme™ (recombinant glucuronidase)" parameter="Mean % Hydrolysis" reported_measurement=76.2%
compound="CN1CC[C@]23c4c5ccc(O)c4O[C@H]2[C@@H](O[C@@H]2O[C@H](C(=O)O)[C@@H](O)[C@H](O)[C@H]2O)C=C[C@H]3[C@H]1C5 [Morphine-6-Glucuronide]" system_under_test="IMCSzyme™ (recombinant glucuronidase)" parameter="Mean % Hydrolysis" reported_measurement=71.2%
compound="CN1CC[C@]23c4c5ccc(O[C@@H]6O[C@H](C(=O)O)[C@@H](O)[C@H](O)[C@H]6O)c4O[C@H]2[C@@H](O)C=C[C@H]3[C@H]1C5 [Morphine-3-Glucuronide]" system_under_test="IMCSzyme™ (recombinant glucuronidase)" parameter="Mean % Hydrolysis" reported_measurement=95.9%
